Recorded % binding @ 100 nM vWF, one value per entry.
test system: full length human vWF (SEQ ID NO 7); assay: dot blot KD determination and extent of binding, full length human vWF; conditions: Phase 4 and 5 modification; extent of aptamer binding at 100 nM full length human vWF;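 note: dot blot binding of aptamers to full length human vWF across a protein titration, incubated 30 minutes at room temperature in 1x DPBS with BSA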
Oligonucleotides are written 5' to 3', each unit as a sugar letter and its base; * is a phosphorothioate linkage, no mark a phosphodiester; rarer units and linkages stand in square brackets, end groups in braces. Plain capitals give the bases only. [PEG] = polyethylene glycol spacer within the chain; [invdT] = inverted (3'-3') thymidine; d = 2'-deoxy (DNA); m = 2'-O-methyl
Outcome Measure: % binding @ 100 nM vWF (%)

INSERT INTO results (substance, outcome_measure, observed_result) VALUES
  ('mGmCmGmUdGdCdAmGmUmGmCmCmUmUmUmGmGmCdCmG-s-TmGdCdGdGTmGmCdCmUdCdCmGmUmCmAmCmGmC-3T (mGmCmGmUdGdCdAmGmUmGmCmCmUmUmUmGmGmCdCmG*dTmGdCdGdGdTmGmCdCmUdCdCmGmUmCmAmCmGmC[invdT]) [ARC1526]', '% binding @ 100 nM vWF', 29.0),
  ('dGdGdCdGTdGdCdAdGTdGdCdCTTdCdGdGdCdCdGTdGdCdGdGTdGdCdCTdCdCdGTdCdAdCdGdCdC-3T (DNA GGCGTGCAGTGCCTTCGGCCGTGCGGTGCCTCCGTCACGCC; DNA, [invdT] at 3'' end, backbone and methylation of C not given here) [ARC1172, ARC1115 with 3''-inverted dT]', '% binding @ 100 nM vWF', 37),
  ('mCmGmGmCdCmG-s-TmGdCdGdGTmGmCdCmUdCdCmGmUmCmAmCPEGmGmUdGdCdAmGmUmGmCmCmG-3T (CGGCCGTGCGGTGCCUCCGUCACGUGCAGUGCCGT; chemistry not fully specified) [ARC1533]', '% binding @ 100 nM vWF', 31.7),
  ('mCmGmUdGdCdAmGmUmGmCmCPEGmGmGmCdCmG-s-TmGdCdGdGTmGmCdCmUdCdCmGmUdCmAmCmG-3T (mCmGmUdGdCdAmGmUmGmCmC[PEG]mGmGmCdCmG*dTmGdCdGdGdTmGmCdCmUdCdCmGmUdCmAmCmG[invdT]; aptamer) [ARC1531]', '% binding @ 100 nM vWF', 20.0);

Hey, just so you know, these numbers are from patent US7998940B2.
